# Experimental System: FGFR2c (fibroblast growth factor receptor 2, isoform IIIc) stably expressed on QhTERT cells (UniProt P21802)
# Sequence (P21802 22-821): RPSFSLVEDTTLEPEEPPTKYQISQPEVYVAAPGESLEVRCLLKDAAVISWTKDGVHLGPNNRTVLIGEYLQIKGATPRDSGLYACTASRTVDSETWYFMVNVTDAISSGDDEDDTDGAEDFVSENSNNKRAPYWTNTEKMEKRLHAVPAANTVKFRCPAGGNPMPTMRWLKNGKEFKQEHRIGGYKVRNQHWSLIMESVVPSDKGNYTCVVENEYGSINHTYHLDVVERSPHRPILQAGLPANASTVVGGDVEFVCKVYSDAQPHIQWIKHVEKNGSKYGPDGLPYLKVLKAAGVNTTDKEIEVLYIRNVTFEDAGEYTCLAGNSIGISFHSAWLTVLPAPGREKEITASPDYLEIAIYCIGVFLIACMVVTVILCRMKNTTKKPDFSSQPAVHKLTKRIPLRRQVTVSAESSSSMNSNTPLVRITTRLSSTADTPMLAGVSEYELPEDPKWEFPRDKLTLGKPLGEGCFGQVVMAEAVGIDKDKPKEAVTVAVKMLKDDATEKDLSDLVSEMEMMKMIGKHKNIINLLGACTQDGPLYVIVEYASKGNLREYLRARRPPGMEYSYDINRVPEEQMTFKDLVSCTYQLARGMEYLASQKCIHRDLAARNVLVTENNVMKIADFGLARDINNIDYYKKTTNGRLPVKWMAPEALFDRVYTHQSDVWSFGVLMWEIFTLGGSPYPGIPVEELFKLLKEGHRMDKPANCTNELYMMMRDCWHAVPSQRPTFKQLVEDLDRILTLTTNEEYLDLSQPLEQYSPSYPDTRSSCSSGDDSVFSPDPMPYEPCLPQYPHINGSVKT
# Assay Info: flow cytometry, apparent dissociation constant on QhTERT cells expressing FGFR2c, 0-200 nM peptide, 4° C.
Where no end group is shown, it is not given here.
Value Type: pKd
Please keep in mind that pKd is minus log10 of the molar concentration; only the number is needed.

Query: Quick check: pKd of SRRPASFRTAREGGGSK(Cy5.5)-NH2 [SRR*-Cy5.5 (peptide … with Cy5.5 attached via a C-terminal GGGSK linker)] ?
Reply: 7.17
